protocol details: In vivo metabolism test of 177Lu-labeled complex in SD rats (plasma radioactive counts)
measurement conditions: mean of rats, 4 h after tail vein injection
measured metric: plasma radioactive counts, MEAN (cpm)
Express it in cpm; write the number only.

Completed entries (count: 3):
Input line: Output plasma radioactive counts, MEAN of O=C([O-])CN1CCN(CC(=O)[O-])CCN(CC(=O)NCC2CCC(C(=O)N[C@@H](Cc3ccc4ccccc4c3)C(=O)NCCCC[C@H](NC(=O)N[C@@H](CCC(=O)O)C(=O)O)C(=O)O)CC2)CCN(CC(=O)[O-])CC1.[177Lu+3] (stereo partly shown) [^177Lu-PSMA-617, reference compound]
Output line: 217

Input line: Output plasma radioactive counts, MEAN of O=C([O-])CN1CCN(CC(=O)[O-])CCN(CC(=O)N2CCC3(CCC(C(=O)NC(Cc4ccc5ccccc5c4)C(=O)NCCCCC(NC(=O)NC(CCC(=O)O)C(=O)O)C(=O)O)CC3)CC2)CCN(CC(=O)[O-])CC1.[177Lu+3] (stereo not shown) [^177Lu-E9]
Output line: 201

Input line: Output plasma radioactive counts, MEAN of O=C([O-])CN1CCN(CC(=O)[O-])CCN(CC(=O)N2CC3(CCC(C(=O)NC(Cc4ccc5ccccc5c4)C(=O)NCCCCC(NC(=O)NC(CCC(=O)O)C(=O)O)C(=O)O)CC3)C2)CCN(CC(=O)[O-])CC1.[177Lu+3] (stereo not shown) [^177Lu-E2]
Output line: 258

// below: plasma radioactive counts, MEAN requested for another compound
Input line: Output plasma radioactive counts, MEAN of O=C([O-])CN1CCN(CC(=O)[O-])CCN(CC(=O)NC23CC(C(=O)NC(Cc4ccc5ccccc5c4)C(=O)NCCCCC(NC(=O)NC(CCC(=O)O)C(=O)O)C(=O)O)(C2)C3)CCN(CC(=O)[O-])CC1.[177Lu+3] (stereo not shown) [^177Lu-E14]
Output line: 220

---

protocol details: In vivo metabolism test of 177Lu-labeled complex in SD rats (plasma radioactive counts)
measurement conditions: mean of rats, 0.5 h after tail vein injection
measured metric: plasma radioactive counts, MEAN (cpm)
Express it in cpm; write the number only.

Completed entries (count: 2):
Input line: Output plasma radioactive counts, MEAN of O=C([O-])CN1CCN(CC(=O)[O-])CCN(CC(=O)N2CC3(CCC(C(=O)NC(Cc4ccc5ccccc5c4)C(=O)NCCCCC(NC(=O)NC(CCC(=O)O)C(=O)O)C(=O)O)CC3)C2)CCN(CC(=O)[O-])CC1.[177Lu+3] (stereo not drawn) [^177Lu-E2]
Output line: 16729

Input line: Output plasma radioactive counts, MEAN of O=C([O-])CN1CCN(CC(=O)[O-])CCN(CC(=O)N2CCc3cc(C(=O)NC(Cc4ccc5ccccc5c4)C(=O)NCCCCC(NC(=O)NC(CCC(=O)O)C(=O)O)C(=O)O)ccc3C2)CCN(CC(=O)[O-])CC1.[177Lu+3] (stereo not drawn) [^177Lu-E3]
Output line: 9127

***
Input line: Output plasma radioactive counts, MEAN of O=C([O-])CN1CCN(CC(=O)[O-])CCN(CC(=O)NC23CC(C(=O)NC(Cc4ccc5ccccc5c4)C(=O)NCCCCC(NC(=O)NC(CCC(=O)O)C(=O)O)C(=O)O)(C2)C3)CCN(CC(=O)[O-])CC1.[177Lu+3] (stereo not drawn) [^177Lu-E14]
Output line: 18310

Input line: Output plasma radioactive counts, MEAN of O=C([O-])CN1CCN(CC(=O)[O-])CCN(CC(=O)NCC2CCC(C(=O)N[C@@H](Cc3ccc4ccccc4c3)C(=O)NCCCC[C@H](NC(=O)N[C@@H](CCC(=O)O)C(=O)O)C(=O)O)CC2)CCN(CC(=O)[O-])CC1.[177Lu+3] (stereo partly drawn) [^177Lu-PSMA-617, reference compound]
Output line: 12703

Input line: Output plasma radioactive counts, MEAN of O=C([O-])CN1CCN(CC(=O)[O-])CCN(CC(=O)Nc2nc3cc(C(=O)NC(Cc4ccc5ccccc5c4)C(=O)NCCCCC(NC(=O)NC(CCC(=O)O)C(=O)O)C(=O)O)ccc3s2)CCN(CC(=O)[O-])CC1.[177Lu+3] (stereo not drawn) [^177Lu-E1]
Output line: 9041

Input line: Output plasma radioactive counts, MEAN of O=C([O-])CN1CCN(CC(=O)[O-])CCN(CC(=O)N2CCC3(CCC(C(=O)NC(Cc4ccc5ccccc5c4)C(=O)NCCCCC(NC(=O)NC(CCC(=O)O)C(=O)O)C(=O)O)CC3)CC2)CCN(CC(=O)[O-])CC1.[177Lu+3] (stereo not drawn) [^177Lu-E9]
Output line: 10405

---

Each item that follows carries a reported Kd.
assayed target: PSMA protein (Homo sapiens (Human), UniProt Q04609)
Sequence (Q04609 whole entry): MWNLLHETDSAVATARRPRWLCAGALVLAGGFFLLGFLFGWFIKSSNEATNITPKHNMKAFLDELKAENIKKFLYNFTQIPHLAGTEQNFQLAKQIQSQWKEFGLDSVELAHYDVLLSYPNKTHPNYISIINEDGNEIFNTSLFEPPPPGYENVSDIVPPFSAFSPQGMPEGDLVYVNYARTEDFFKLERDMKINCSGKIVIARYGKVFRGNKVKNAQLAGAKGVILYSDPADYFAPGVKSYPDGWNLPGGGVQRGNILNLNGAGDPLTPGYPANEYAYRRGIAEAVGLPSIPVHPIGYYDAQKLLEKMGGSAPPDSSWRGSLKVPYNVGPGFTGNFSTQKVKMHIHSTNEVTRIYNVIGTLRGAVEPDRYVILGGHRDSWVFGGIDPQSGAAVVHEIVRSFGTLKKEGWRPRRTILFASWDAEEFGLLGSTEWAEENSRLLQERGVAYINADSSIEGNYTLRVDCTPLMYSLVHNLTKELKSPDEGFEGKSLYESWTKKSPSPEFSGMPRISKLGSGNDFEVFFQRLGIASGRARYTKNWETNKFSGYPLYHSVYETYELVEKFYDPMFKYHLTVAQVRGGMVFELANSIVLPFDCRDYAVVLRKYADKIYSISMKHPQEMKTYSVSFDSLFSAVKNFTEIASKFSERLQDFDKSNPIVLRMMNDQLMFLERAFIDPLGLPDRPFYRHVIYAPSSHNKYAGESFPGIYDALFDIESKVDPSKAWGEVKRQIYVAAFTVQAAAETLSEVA
protocol details: In vitro binding test of compound and PSMA protein (Biacore)
measurement conditions: Biacore 8K, 15° C., 1:1 binding model, KD in M; read-out: pkD (pKD=−Log KD, binding affinity to PSMA protein) (converted)
Express it in nM; write the number only.

Completed entries (count: 3):
Input line: Output Kd of O=C(O)CC[C@H](NC(=O)N[C@@H](CCCCNC(=O)[C@H](Cc1ccc2ccccc2c1)NC(=O)[C@H]1CC[C@H](CNC(=O)CN2CCN(CC(=O)O)CCN(CC(=O)O)CCN(CC(=O)O)CC2)CC1)C(=O)O)C(=O)O [PSMA-617, reference compound]
Output line: 0.00204

Input line: Output Kd of O=C(O)CC[C@H](NC(=O)N[C@@H](CCCCNC(=O)[C@H](Cc1ccc2ccccc2c1)NC(=O)c1ccc2c(c1)CN(C(=O)CN1CCN(CC(=O)O)CCN(CC(=O)O)CCN(CC(=O)O)CC1)CC2)C(=O)O)C(=O)O [Compound E4]
Output line: 0.269

Input line: Output Kd of O=C(O)CC[C@H](NC(=O)NC(CCCCNC(=O)[C@H](Cc1ccc2ccccc2c1)NC(=O)C1CCC2(CC1)CCN(C(=O)CN1CCN(CC(=O)O)CCN(CC(=O)O)CCN(CC(=O)O)CC1)CC2)C(=O)O)C(=O)O (stereo partly shown) [Compound E9]
Output line: 0.282

// below: Kd requested for another compound
Input line: Output Kd of O=C(O)CC[C@H](NC(=O)NC(CCCCNC(=O)[C@H](Cc1ccc2ccccc2c1)NC(=O)C1CCC2(CC1)CN(C(=O)CN1CCN(CC(=O)O)CCN(CC(=O)O)CCN(CC(=O)O)CC1)C2)C(=O)O)C(=O)O (stereo partly shown) [Compound E2]
Output line: 0.229
